This section presents compounds with their documented rat, % free values.
- protocol_description: Plasma protein binding at 10 μM
- Type: in vitro ADME, rat
- study_conditions: unbound percent ± standard deviation
All answers are understood in %, so give the number only.

Reference set (3 entries):
compound: O[C@H]1[C@H](n2cnc3c(N[C@H]4C[C@H]5CC[C@@H]4C5)nc(Cl)nc32)[C@H]2C[C@@]2(CCl)[C@H]1O
rat, % free (%): 2.53

compound: OC[C@@]12C[C@@H]1[C@@H](n1cnc3c(NC(C4CCC4)C4CCC4)ncnc31)[C@H](O)[C@@H]2O
rat, % free (%): 17.8

compound: OC[C@H]1O[C@@H](n2cnc3c(NC(C4CCC4)C4CCC4)ncnc32)[C@H](O)C1O (stereo in doubt)
rat, % free (%): 14.6

# context switch: different compound, same rat, % free
// query So what does the record say about rat, % free for OC[C@H]1O[C@@H](n2cnc3c(NC(C4CCC4)C4CCC4)nc(Cl)nc32)[C@H](O)C1O (stereo in doubt) ?
// result 4.64

---

- measured_target: mA3AR (Mus musculus)
- Sequence (Q61618 whole entry): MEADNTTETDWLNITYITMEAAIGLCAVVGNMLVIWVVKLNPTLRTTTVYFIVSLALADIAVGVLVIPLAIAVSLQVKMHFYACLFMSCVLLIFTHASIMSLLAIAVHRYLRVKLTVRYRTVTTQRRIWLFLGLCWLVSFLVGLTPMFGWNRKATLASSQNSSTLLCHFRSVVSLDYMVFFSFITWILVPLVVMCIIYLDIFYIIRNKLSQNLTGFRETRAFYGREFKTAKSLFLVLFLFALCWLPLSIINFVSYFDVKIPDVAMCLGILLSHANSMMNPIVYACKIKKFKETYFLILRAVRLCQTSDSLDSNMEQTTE
- protocol_description: Adenosine receptor binding, mA3AR
- study_conditions: (m); Ki; read-out: A3AR % inhibition or Ki (converted)
property_label: Ki (µM)
All answers are understood in µM, so give the number only.

Reference set (5 entries):
compound: OC[C@@]12C[C@@H]1[C@@H](n1cnc3c(NC(C4CCC4)C4CCC4)nc(Cl)nc31)[C@H](O)[C@@H]2O
meas_value: 0.612
//
compound: CNC(=O)[C@@]12C[C@@H]1[C@@H](n1cnc3c(NC4CCCC4)nc(Cl)nc31)[C@H](O)[C@@H]2O [Compound 6e, reference compound]
meas_value: 0.00346
//
compound: O[C@@H]1[C@H](O)[C@@H](CCl)O[C@H]1n1cnc2c(NC3CC4CCC3C4)ncnc21 (stereo partly drawn) [Compound 3, reference compound]
meas_value: 0.424
//
compound: O=C(NC1CC1)[C@@]12C[C@@H]1[C@@H](n1cnc3c(N[C@H]4C[C@H]5CC[C@@H]4C5)nc(Cl)nc31)[C@H](O)[C@@H]2O
meas_value: 0.0295
//
compound: OC[C@@]12C[C@@H]1[C@@H](n1cnc3c(NC(C4CCC4)C4CCC4)ncnc31)[C@H](O)[C@@H]2O
meas_value: 0.918

// query Lab note: need Ki for O[C@@H]1[C@H](O)[C@@H](CCl)O[C@H]1n1cnc2c(NC3CC4CCC3C4)ncnc21 (stereo partly drawn) [Compound 4, reference compound] on mA3AR (Mus musculus), anyone have it?
// result 2.41

---

- measured_target: hA3AR (Homo sapiens, UniProt P0DMS8)
- Construct: expressed in transfected cells; host or cells: CHO
- Sequence (P0DMS8 1-318): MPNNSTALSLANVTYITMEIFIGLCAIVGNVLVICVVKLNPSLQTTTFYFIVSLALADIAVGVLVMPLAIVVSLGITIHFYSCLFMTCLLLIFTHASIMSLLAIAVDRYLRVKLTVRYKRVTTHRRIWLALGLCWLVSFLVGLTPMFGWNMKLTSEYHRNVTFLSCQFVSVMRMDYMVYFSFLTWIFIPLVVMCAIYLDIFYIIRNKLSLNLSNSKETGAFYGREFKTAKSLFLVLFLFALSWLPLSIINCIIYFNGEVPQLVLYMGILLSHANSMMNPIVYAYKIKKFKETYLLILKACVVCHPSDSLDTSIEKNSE
- protocol_description: Radioligand binding in membranes of CHO cells expressing hA3AR
- study_conditions: (h); Ki; read-out: A3AR % inhibition or Ki
pKi: −log10 of the molar value.
Rule: pKi under 6 gives -1, otherwise 1.

compound: O=C(NC1CC1)[C@@]12C[C@@H]1[C@@H](n1cnc3c(N[C@H]4C[C@H]5CC[C@@H]4C5)nc(Cl)nc31)[C@H](O)[C@@H]2O [Compound 36]
measured_target: hA3AR (Homo sapiens, UniProt P0DMS8)
category_label: 1

// query Does Nc1ncnc2c1ncn2[C@@H]1O[C@H](C(=O)NCCO)[C@@H](O)[C@H]1O [Compound 18, reference compound] have a reported pKi of at least 6?
// result -1

// query Then what about the compound OC[C@@]12C[C@@H]1[C@@H](n1cnc3c(N[C@H]4C[C@H]5CC[C@@H]4C5)nc(Cl)cc31)[C@H](O)[C@@H]2O [Compound 30] ?
// result 1

// query Then what about the compound O[C@H]1[C@H](n2cnc3c(N[C@H]4C[C@H]5CC[C@@H]4C5)nc(Cl)nc32)[C@H]2C[C@@]2(CCl)[C@H]1O [Compound 31] ?
// result 1

// query Then what about the compound CCSC[C@H]1O[C@@H](n2cnc3c(NC(C4CCC4)C4CCC4)ncnc32)[C@H](O)[C@@H]1O [Compound 11] ?
// result -1

From: patent US12378248B2
